- method: viability loss in pontine glioma line – cell-based, SU-DIPG-XIII, MIPE5.0, CellTiter-Glo, qHTS, dose response (AID 1347064);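 for AC50: cells exposed to compound for 48 hours before the viability read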
- particulars: CellTiter-Glo ATP luminescence
Inconclusive results are not listed. Calls of active or inactive are those of the source. No cut-off is given here; in the data, nearly all actives have AC50 up to about 23 µM.
Labels: t for active, f for inactive

• COc1cc(F)c(F)c(Nc2ccc(I)cc2F)c1NS(=O)(=O)C1(C[C@H](O)CO)CC1 = t
• CC(=O)N1CCC(Nc2cc(C(=O)NC[C@H](O)CN3CCc4ccccc4C3)ncn2)CC1 = f
• NC(=O)c1nc(F)c[nH]c1=O = f
• CC[C@@H]1C(=O)N(C)c2cnc(Nc3ccc(C(=O)NC4CCN(C)CC4)cc3OC)nc2N1C1CCCC1 = t
• CN[C@@H](C)C(=O)N[C@H](C(=O)N1CCC[C@H]1C(=O)Nc1sc(-c2ncco2)nc1-c1ccccc1)C1CCCCC1 = f
• CC(=O)Nc1cc(Oc2ccc3c(nc(Nc4ccc(F)cc4F)n3C)c2C)ccn1 = t
• CC(C)Oc1cc(Nc2nc(N[C@@H](C)c3ccc(F)cn3)ncc2Cl)[nH]n1 = t
• CCOc1ccc(-n2c([C@@H](C)N(Cc3cccnc3)C(=O)Cc3ccc(F)c(C(F)(F)F)c3)nc3ncccc3c2=O)cc1 = f
• COc1ccc(CNC(=O)Nc2ncc([N+](=O)[O-])s2)cc1 = t
